test system: OVCAR-3 ovarian; experiment: NCI tumour cell line growth inhibition, 48 h
Use condition met when the recorded TGI is no lower than 30 µM; use condition not met when it is lower.

MOLECULE	MEASURED_ON	ANSWER_LABEL
CNc1nc(SC)nc2c1c(N)nn2C	OVCAR-3 ovarian	condition met
CN([O-])c1nc(N(C)[O-])nc(N2CCOCC2)n1.CN([O-])c1nc(N(C)[OH2+])nc(N2CCOCC2)n1.[Fe+3]	OVCAR-3 ovarian	condition met
Cc1ccc(C2=C(c3ccc(C)cc3)C3(c4ccc(C)cc4)[C@@H](C#N)[C@H](C#N)C2(c2ccc(C)cc2)S3=O)cc1 (some centres not stated)	OVCAR-3 ovarian	condition met
CN(C(=O)CC(=O)CP(=O)(c1ccccc1)c1ccccc1)c1ccccc1	OVCAR-3 ovarian	condition met
CC(C)NCC(O)c1cc(OCc2ccccc2)c(OCc2ccccc2)cc1NC(=O)CCC(=O)O (configuration not stated)	OVCAR-3 ovarian	condition not met
O=C(/C=C/c1ccc(OCCSCCCCCCCCCCSCCOc2ccc(/C=C/C(=O)c3ccc(Cl)cc3)cc2)cc1)c1ccc(Cl)cc1	OVCAR-3 ovarian	condition met
FC(F)(F)c1cccc(Nc2nc3ccccc3nc2Nc2cccc(C(F)(F)F)c2)c1	OVCAR-3 ovarian	condition not met
O=C(N/N=C\c1c(O)ccc2ccccc12)C1CC1	OVCAR-3 ovarian	condition met
COC(=O)CC1C(C)(C)C(=O)C2CC3=C4CC(=O)OC(c5ccoc5)C4(C)CCC3C1(C)C2=O (configuration not stated)	OVCAR-3 ovarian	condition met
O=C(CC1(O)C(=O)Nc2c(Cl)cc(Cl)cc21)c1ccco1 (configuration not stated)	OVCAR-3 ovarian	condition met
COc1ccc(/C=N/C2=C(C#N)C(c3ccccc3)c3c(ccc4ccccc34)O2)cc1 (configuration not stated)	OVCAR-3 ovarian	condition not met
CCOc1cc2c[n+](C)c3c4cc(OC)c(OC)cc4ccc3c2cc1OC	OVCAR-3 ovarian	condition met
O=C(/C=C1\C[C@H]2C=Nc3ccccc3C(=O)N2C1)NCCCNC(=O)/C=C1\C[C@H]2C=Nc3ccccc3C(=O)N2C1	OVCAR-3 ovarian	condition met
Cn1ccnc1Sc1ccc(/C=N/NC(=O)c2ccccc2[N+](=O)[O-])cc1[N+](=O)[O-]	OVCAR-3 ovarian	condition met
O=C(OCCN1CCCCCC1)C(c1ccsc1)C1CCCCC1 (configuration not stated)	OVCAR-3 ovarian	condition not met
CCN(CC)c1ccc(/C=C2\SC(=O)C(Nc3nnc(-c4cccnc4SCc4ccccc4)o3)C2=O)cc1 (configuration not stated)	OVCAR-3 ovarian	condition not met
Cc1ccc(S(=O)(=O)NC(=O)Nc2ccc(C(=O)O)c(O)c2)cc1	OVCAR-3 ovarian	condition met
COc1ccc(CC#N)c(OCc2ccccc2)c1	OVCAR-3 ovarian	condition met
O=C(O)c1ccccc1CC1Cc2ccccc2C1	OVCAR-3 ovarian	condition met

* * *

tested on: M19-MEL melanoma; experiment: NCI tumour cell line growth inhibition, 48 h
RECORDED_METRIC: TGI

> print(dat)
                                    compound  recorded.metric  measurement
 1              COc1ccc(CC#N)c(OCc2ccccc2)c1              TGI     > 100 µM
 2  CC(=O)c1c(P(=O)(OC(C)C)OC(C)C)nn(-c2ccc([N+](=O)[O-])cc2)c1C              TGI     > 100 µM
 3               C1CN1c1nc(N2CC2)nc(N2CC2)n1              TGI        33 µM
 4  C=CCC12CC(=O)CCC1CC(=O)C2 (stereo unspecified)              TGI     > 100 µM
 5  CCCCCCCCC1=CCC(CN(C)C)C1=O (stereo unspecified)              TGI      32.3 µM
 6  Cc1cc(O)c2c3c1C(=O)Oc1c(CO)c(O)c(C(=O)O)c(c1O3)C=NN=Cc1c3c(c(CO)c(O)c1C(=O)O)OC(=O)c1c(C)cc(O)c(c1O3)C=NN=C2              TGI     > 100 µM
 7  CC(C)C(=O)N1C(=O)O[C@@H](c2ccccc2)[C@H]1C              TGI     > 100 µM
 8  FC(F)(F)C1(Cl)C(Cl)(c2ccccc2)C1(Cl)c1ccccc1 (stereo unspecified)              TGI        29 µM
 9  CCOc1cc2c[n+](C)c3c4cc(OC)c(OC)cc4ccc3c2cc1OC              TGI     > 100 µM
10  Cc1cccc(C)c1NC(=O)C(=O)C(C#N)c1ccccc1Cl (stereo unspecified)              TGI     > 100 µM
11                 C/C(O)=C/c1nc2ccccc2[nH]1              TGI     > 100 µM

* * *

system: PC-3 prostate; test: NCI tumour cell line growth inhibition, 48 h
Entries and their TGI
RECORDED_METRIC: TGI

> print(dat)
                                input.smiles  measurement
 1  COc1ccc2nc3cc(Cl)ccc3c(NCCCCCN3CCCCC3)c2c1      4.51 µM
 2         O=C(N/N=C\c1c(O)ccc2ccccc12)C1CC1     > 100 µM
 3  COc1ccc2c(c1)c(=O)c1c(NCCN(C)C)ccc3c(=O)n(CCN(C)C)c(=O)n2c31     0.816 µM
 4       FC(F)(F)c1ccc(-c2cncn2-c2ccccc2)cc1      35.6 µM
 5   N#Cc1c(N)nc(Nc2cccc3ccccc23)c(C#N)c1C#N      > 10 µM
 6  CN([O-])c1nc(N(C)[O-])nc(N2CCOCC2)n1.CN([O-])c1nc(N(C)[OH2+])nc(N2CCOCC2)n1.[Fe+3]     > 100 µM
 7  CCCCc1ccc(Nc2nc(=S)c3ncn(COCCO)c3[nH]2)cc1     > 100 µM
 8                   CC(=NC1CCCCC1)c1ccccc1O     > 100 µM
 9              CCOC(=O)N/N=C(\Cc1ccccc1)OCC     > 100 µM
10                 Cc1cc(C)c2cc(N)c(Cl)nc2n1     > 100 µM
11  COC(=O)[C@@H](Cc1ccccc1)NNC(=O)OC(C)(C)C     > 100 µM

* * *

test system: A498 renal; experiment: NCI tumour cell line growth inhibition, 48 h
Entries and their TGI
RECORDED_METRIC: TGI (µM)

COMPOUND	INEQUALITY_SYMBOL	MEASUREMENT
c1ccc([P+](CCN2Cc3ccccc3C2)(c2ccccc2)c2ccccc2)cc1	=	55.6
CC(C)(C)OC(=O)N1CCCC1=O	>	10
CN1CCc2c(sc3ncn(N)c(=N)c23)C1	>	100
COc1cc(/C=N/c2nncs2)ccc1O	>	100
CC(C)(C)OC(=O)Nc1nnc(S(N)(=O)=O)s1	>	100
CO[C@H](C(=O)[C@@H](O)[C@@H](C)O)[C@@H]1Cc2cc3cc(O[C@H]4C[C@@H](O[C@H]5C[C@@H](O)[C@H](O)C(C)O5)[C@H](O)C(C)(O)O4)cc(O)c3c(O)c2C(=O)[C@H]1O[C@H]1C[C@@H](O[C@H]2C[C@@H](O[C@H]3C[C@@H](OC)[C@H](O)C(C)O3)[C@@H](O)C(C)O2)[C@H](O)C(C)O1 (stereo partly drawn)	=	1.29
CNC(=O)N(C1=NCC(C)S1)c1ccc(C)c(C)c1 (stereo not drawn)	=	17
OC1CC2CCCN(CCc3c1[nH]c1ccccc31)C2 (stereo not drawn)	>	100
CC(=O)[CH-]C(C)=O.CC(=O)[CH-]C(C)=O.[CH2-]CCCCCCC.[CH2-]CCCCCCC.[Sn+4]	=	46.7
CC(C)C(Br)CC/C(CBr)=C(\Cl)CCl (stereo not drawn)	=	35
Nc1cc2c(nc3c4ccccc4c(N)cc3[n+]2-c2cccc3ccccc23)c2ccccc12 (tested in a mixture with another compound)	=	16.9
COc1cccc(C2C(C(=O)O)=C(CO)Oc3cc4c(cc32)OCO4)c1OC (stereo not drawn)	>	100
CCN(CC)c1ccc(/C=C2\SC(=O)C(Nc3nnc(-c4cccnc4SCc4ccccc4)o3)C2=O)cc1 (stereo not drawn)	=	8.2
O=C1c2ccccc2C(=O)c2c(N=Nc3[nH]c(=S)[nH]c3O)cccc21	=	1.13
CN([O-])c1nc(N(C)[O-])nc(N2CCOCC2)n1.CN([O-])c1nc(N(C)[OH2+])nc(N2CCOCC2)n1.[Fe+3]	>	100
CC(C)(N=NC(C)(C)C(=N)N)C(=N)N	>	100
C/C=N\n1c(C)n[nH]c1=O	>	100
Cn1c(=O)c2c(nc3sc4nc5ccccc5nc4n32)n(C)c1=O	>	100
COc1ccc(OC)c(N2C(=O)/C(=C\c3ccccc3)SC2c2cc(OC)c(OC)c(OC)c2)c1 (stereo not drawn)	>	100
CC1CCC2(NC1)OC1CC3C4CCC5CC(OC6OC(CO)C(OC7OC(CO)C(O)C(OC8OCC(O)C(O)C8O)C7OC7OC(CO)C(O)C(O)C7O)C(O)C6O)CCC5(C)C4CCC3(C)C1C2C (stereo not drawn)	=	3.75
CN1CCN(c2ccc3nc(-c4c5cccccc-5[nH]c4=O)[nH]c3c2)CC1	=	21.4
O=C1CCC(O)=C1N=Nc1cc(Cl)cc(Cl)c1	=	91
O=C(O)C1CCCN1C(=O)c1cc(Cl)ccn1 (stereo not drawn)	>	100
Cc1cccc(C)c1NC(=O)C(=O)C(C#N)c1ccccc1Cl (stereo not drawn)	>	100
O=[N+]([O-])/C(C(Cl)=C(Cl)Cl)=C(\Nc1cccc2ccccc12)Sc1ccccc1	=	23.5
Cc1cccc(C)c1NC(=O)/C(Cc1nc2ccc([N+](=O)[O-])cc2[nH]c1=O)=N\NC(N)=O	>	100
C[C@@H]1CCC[C@]2(C)O[C@H]2CC[C@@](C)(O)[C@@H]2CC3=C(CO)C(=O)O[C@H]3[C@H]1O2	>	50
Cc1c2cnccc2c(C)c2c1c1cc(CO)ccc1n2C	=	0.169
CN(C(=O)c1ccccc1)C1CCCC(=O)CC1 (stereo not drawn)	>	100
O=C1OCC2=C1C(c1cccc(Cl)c1)c1cc3c(cc1N2CCO)OCO3 (stereo not drawn)	=	2.55
O=C1OC2C(O)COC2(O)C1(O)Cc1c[nH]c2ccccc12 (stereo not drawn)	>	100
Cc1ccc2c(c1)C(=O)c1[nH]c3ccc(F)cc3c1CO2	>	100
O=c1[nH]c(=S)[nH]c2c1C(c1ccc(Cl)cc1)c1c([nH]c(=S)[nH]c1=O)O2	>	100
NC(N)=C1CN(C2CCCCC2)C(=O)NC1=O	>	100
COc1ccc(/C=C/C(=O)c2cccc(B(O)O)c2)cc1O	=	11.2
COc1ccc(/C=C2/N=C(N/N=C\C(O)C(O)C(O)C(O)CO)NC2=O)cc1 (stereo not drawn)	>	100
CCCCCCC[C@@H](O)CC(=O)NC(CC(C)C)C(=O)NC(CCC(=O)O)C(=O)NC1C(=O)NC(C(C)C)C(=O)NC(CC(C)C)C(=O)NC(CO)C(=O)NC(CC(C)C)C(=O)NC(CO)C(=O)NC(C(C)CC)C(=O)OC1C (stereo partly drawn)	=	31.6
COc1c2c(cc3nc4ccccc4nc13)CC[C@H](NC(C)=O)c1cc(=O)c(SC)ccc1-2	>	90.9
